All figures here come from PubChem BioAssay (NCI).

For each of the molecules below, state its TGI.
tested on: RXF 393 renal; assay: NCI tumour cell line growth inhibition, 48 h

Observe how each entry below is paired with its result.
Molecule: COc1ccc(N=N/C(=N\NC(=O)c2cc(Br)ccc2O)c2ccc(N(CCC#N)CCC#N)cc2OC)cc1
Assayed system: RXF 393 renal
TGI: > 150 µg/mL
--
Molecule: COC(=O)C(=O)C(C#N)c1cccc(Cl)c1 (centres undefined)
Assayed system: RXF 393 renal
TGI: > 100 µM

Would you mind listing TGI for each of the following molecules?
1. CC[O-].CC[O-].COc1ccc(C(=O)[CH-]C(C)=O)cc1OC.COc1ccc(C(=O)[CH-]C(C)=O)cc1OC.[Ti+4]
2. N#CCCN(C1=NN(C(=O)CC(=O)Nc2ccc(Cl)cc2)C(c2ccccc2)C1)c1ccc(Cl)cc1 (centres undefined)

Result:
["99.7 µM", "> 100 µM"]

* * *

tested on: NCI-H460 lung; experiment: NCI tumour cell line growth inhibition, 48 h
Parameter: TGI

For the 2 compounds below, give their TGI values.
1. COc1ccc2nc3cc([N+](=O)[O-])ccc3c(NNc3ccc([N+](=O)[O-])cc3)c2c1
2. N#CC(C#N)=Cc1ccc(C(O)P(=O)(O)O)cc1 (centres undefined)

Result:
> 59.7 µM
> 100 µM

Return reported TGI values for all items listed beneath this line.
1. O=C(/C=C/c1ccco1)Nc1ncc(Cc2cccc(C(F)(F)F)c2)s1
2. OC(c1ccccc1)C1CC2C=CC1C2 (centres undefined)

Result:
9.59 µM
> 100 µM

* * *

tested on: NCI-H226 lung; assay: NCI tumour cell line growth inhibition, 48 h
For each entry below, report its TGI value.
One number for each entry, in µM.

Examples from the recorded data:
Molecule: Cc1ccc(S(=O)(=O)OCC(=O)Nc2ccc(C(=O)O)c(O)c2)cc1
Units of measure: µM
TGI: 139
//
Molecule: O=C(NC1CCN(Cc2ccccc2)CC1)c1cccc(I)c1
Units of measure: µM
TGI: 78.1

Kindly give each listed record's TGI.
1. COC(=O)CC1C2(C)C3=C(C)C(c4ccoc4)CC3OC2C2OC(=O)C3(C)C=CC(=O)C1(C)C23 (centres undefined)
2. CC1(CO)C(O)CCC2(C)C1C(O)CC1CC3CC12CCC3(O)CO (centres undefined)

Result:
1: 7.68; 2: 224

* * *

tested on: A549 NSCLC; assay: NCI tumour cell line growth inhibition, 48 h; in the data active = GI50 below about 0.43 µM; inactive = the rest
Reply using exactly one outcome from class 1 = active, class 0 = inactive

Example entries begin here.
Smiles record: O=C1Nc2ccc(O)cc2/C1=C\c1ccncc1
Qualitative label: class 0

Smiles record: NC(=O)c1cc(I)ccc1NC(=O)/C=C/c1ccccc1Cl
Qualitative label: class 0

Smiles record: Cc1cc(I)cc(CNCCN2CCOCC2)c1O
Qualitative label: class 0

Smiles record: CCCCCCCCCCCCNC(=O)N[C@H](C(=O)N[C@H]1/C=C/CCNC(=O)/C=C/[C@H](C)NC1=O)C(C)C
Qualitative label: class 1

Smiles record: Cc1cc2c(C(=O)NCC#N)cccc2n1-c1nc2c(c(NCc3ccccc3)n1)CCCC2
Qualitative label: class 1

Task: Please share the test call associated with CC[O-].CC[O-].COc1ccc(C(=O)[CH-]C(C)=O)cc1OC.COc1ccc(C(=O)[CH-]C(C)=O)cc1OC.[Ti+4] .
Result: class 0

Task: What did this assay record as the result for CCC[CH2][Sn]1([CH2]CCC)[O]C(=O)CN=C(C)c2ccccc2[O]1 ?
Result: class 0

Task: Tell me the recorded outcome of this test for CN1C(=O)/C(=C2\S/C(=N\c3nnc(-c4ccccc4)o3)NC2=O)c2ccccc21 .
Result: class 0

* * *

tested on: SK-OV-3 ovarian; experiment: NCI tumour cell line growth inhibition, 48 h
Parameter: GI50

Reference set, count: 5
Molecule: CCOC(=O)Nc1ccc2nc(N3CCCCCC3)sc2c1
Assayed system: SK-OV-3 ovarian
Result: 2.36 µM

Molecule: Nc1nc(=S)c2ncn(C3OC(CO)C(O)C3O)c2[nH]1 (stereo not given)
Assayed system: SK-OV-3 ovarian
Result: 0.379 µM

Molecule: O=C(O)c1ccc(NCc2nc3ccccc3[nH]2)cc1
Assayed system: SK-OV-3 ovarian
Result: > 100 µM

Molecule: C=C1C[C@@H](O)[C@@H](Br)C(C)(C)[C@]12CCC(C)(Br)C(Cl)C2 (stereo not given in full)
Assayed system: SK-OV-3 ovarian
Result: 24 µM

Molecule: Cc1cc(I)cc(CNCCN2CCOCC2)c1O
Assayed system: SK-OV-3 ovarian
Result: > 100 µM

Count: 4. Required value per item: GI50.
1. COC1=CC(c2ccc[nH]2)=N/C1=C\c1[nH]c(C)c(C(=O)Oc2ccccc2)c1C
2. C=C[C@H]1CN2CCc3c([nH]c4c([C@@H]5CCCN5C)c(O)ccc34)[C@@H]2C[C@@H]1C[C@H]1c2[nH]c3ccccc3c2CCN1C
3. Cc1cncc(-c2nc(NCCc3c[nH]c4ccccc34)c3ncn(C(C)C)c3n2)c1
4. NS(=O)(=O)c1ccc(N=Nc2c(O)[nH]c3ccc(C(=O)NCCc4cnc[nH]4)cc23)cc1

Result:
1: 1.68 µM; 2: 2.03 µM; 3: 5.76 µM; 4: > 25 µM

* * *

Please respond with reported TGI for every item in the list.
tested on: SNB-75 CNS; assay: NCI tumour cell line growth inhibition, 48 h

These recorded examples may help you get a feel for the data.
Compound: COC(=O)[C@H](C)NC(=O)C1(CNC(=O)[C@H](C)NC(=O)OC(C)(C)C)Cc2ccccc2-c2ccccc2C1
TGI: > 60.2 µM
--
Compound: CC1(C)CCCC2CC2CCC(C)(C)C1=O (configuration not stated)
TGI: > 100 µM
--
Compound: COc1ccc(N2C(=O)C(=O)N(C)C2=O)c2ccccc12
TGI: > 10 µM

Please give TGI for each item listed below.
1. CCSc1nc(NC(C)c2ccccc2)c2cnn(CO)c2n1 (configuration not stated)
2. O=C(Nc1ccc(Oc2ccc(NC(=O)Nc3ccccc3Cl)cc2)cc1)Nc1ccccc1Cl
3. CC1OC(OC2C(OC(=O)[C@]34CCC(C)(C)CC3C3=CCC5[C@@]6(C)C[C@H](O)[C@H](OC7OC(COC8OC(CO)C(O)C(O)C8O)C(O)C(O)C7O)[C@@](C)(C(=O)O)C6CC[C@@]5(C)C3(C)CC4)OCC(O)C2O)C(O)C(O)C1OC1OCC(O)C(O)C1O (some centres not stated)
4. O=C(/C=C\c1cc(Br)ccc1O)/C=C/c1cc(Br)ccc1O
5. CCC(C)C(=O)O[C@H]1C(=O)O[C@@H]2C[C@H]3C(C)=CC(=O)[C@@H](O)[C@]3(C)[C@H]3[C@@H](O)[C@H](O)[C@@]4(C)OC[C@]32[C@@H]14 (some centres not stated)

Result:
> 100 µM
37.3 µM
> 100 µM
2.8 µM
< 0.0299 µM

List reported TGI for each of these compounds:
1. CN(C)CCCOc1ccc(/C=C2/CCC/C(=C/c3ccc(OCCCN(C)C)cc3)C2=O)cc1
2. O=C1c2cccc([N+](=O)[O-])c2C(=O)c2nccnc21
3. CC1(c2nc3ccccc3[nH]2)CCC(C#N)C(C)(C)O1 (configuration not stated)
4. COc1ccc(C(OC(=O)[C@H](O[Si](C)(C)C(C)(C)C)[C@@H](NC(=O)c2ccccc2)c2ccccc2)c2ccc(OC)cc2)cc1

Result:
2.61 µM
2.35 µM
> 100 µM
> 100 µM

* * *

system: HCC-2998 colon; experiment: NCI tumour cell line growth inhibition, 48 h
Assignment: determine reported TGI for the given molecules.

Examples from the recorded data:
Molecule: Cc1ccc(NC(=O)CC(=O)N2N=C(N3CCCCC3)CC2c2ccccc2)cc1 (centres undefined)
Result: > 100 µM
//
Molecule: COC(=O)C(=O)C(C#N)c1cccc(Cl)c1 (centres undefined)
Result: > 100 µM
//
Molecule: COc1ccc(C[n+]2cccc(O)c2)cc1
Result: > 100 µM
//
Molecule: O=c1sc(Nc2ccc3ccccc3c2Cl)nc2ccccc12
Result: > 100 µM
//
Molecule: COc1ccc(/C=C2\C[C@H]3[C@@H]4CC=C5C[C@@H](OC(C)=O)CC[C@]5(C)[C@H]4CC[C@]3(C)C2=O)cc1OC
Result: > 100 µM

Quick request: TGI for each listed item, please.
1. CC12CC/C(=N/NC(N)=O)C3C1CCCC32
2. COC(=O)CNC(=O)CNC(=O)CSc1nnc(COc2ccc(Cl)cc2)n1-c1ccccc1

Result:
1. > 100 µM
2. > 100 µM

* * *

Answer each item with its documented TGI.
system: HCT-116 colon; assay: NCI tumour cell line growth inhibition, 48 h

Use these answered entries as a reference point.
Compound: CCCCC(O)(c1ccccc1)C(O)(c1ccccc1)c1c(F)c(F)c(F)c(F)c1F (stereo not given)
Result: 65 µM

Compound: O=C(/C=C\c1ccsc1)c1ccccc1
Result: 14.5 µM

Compound: O=C(O)CCC(=O)Oc1ccc(O)c2c1CCCC2=O
Result: > 100 µM

Compound: Cc1ccc(/C=C(/C#N)n2nnc3ncccc32)cc1
Result: 11.1 µM

Compound: O=S1(=O)OCCOS(=O)(=O)C1(Cl)Cl
Result: > 100 µM

Answer for every listed entry: what is its TGI? The entries follow.
1. Fc1ccc(Nc2ncc(-c3cc(F)c(Cl)cc3Cl)s2)cc1Cl
2. C[C@@H]1CC[C@H]2[C@@H](C)C(OC/C=C/COC3O[C@@H]4O[C@@]5(C)CC[C@H]6[C@H](C)CC[C@@H]([C@H]3C)[C@@]46OO5)O[C@@H]3O[C@@]4(C)CC[C@@H]1[C@]32OO4 (stereo not given in full)

Result:
7.2 µM
13.9 µM

Hey, quick one: what's TGI for each of these?
1. CN(C)CCCOc1ccc(/C=C2/CCC/C(=C/c3ccc(OCCCN(C)C)cc3)C2=O)cc1
2. CCOC(=O)c1cc(-c2ccc([N+](=O)[O-])cc2)c([N+](=O)[O-])[nH]1
3. O=c1c2ccccc2nc2n1CCc1c-2[nH]c2cc3c(cc12)OCO3

Result:
2.76 µM
> 10 µM
> 25 µM
